target: OAT4 (Homo sapiens); construct: V5 (from pLenti6/V5-DEST); expressed in transfected cells; host or cells: MDCK-1 (lentiviral transduction, blasticidin selection); experiment: MDCK-OAT4 TH uptake assay with 125I-T4 tracer; assay type: cell-based; settings: single concentration 10 or 100 µM, 10 nM T4, 20 min; below 80% = positive hit
Sequence (Q9NSA0 whole entry): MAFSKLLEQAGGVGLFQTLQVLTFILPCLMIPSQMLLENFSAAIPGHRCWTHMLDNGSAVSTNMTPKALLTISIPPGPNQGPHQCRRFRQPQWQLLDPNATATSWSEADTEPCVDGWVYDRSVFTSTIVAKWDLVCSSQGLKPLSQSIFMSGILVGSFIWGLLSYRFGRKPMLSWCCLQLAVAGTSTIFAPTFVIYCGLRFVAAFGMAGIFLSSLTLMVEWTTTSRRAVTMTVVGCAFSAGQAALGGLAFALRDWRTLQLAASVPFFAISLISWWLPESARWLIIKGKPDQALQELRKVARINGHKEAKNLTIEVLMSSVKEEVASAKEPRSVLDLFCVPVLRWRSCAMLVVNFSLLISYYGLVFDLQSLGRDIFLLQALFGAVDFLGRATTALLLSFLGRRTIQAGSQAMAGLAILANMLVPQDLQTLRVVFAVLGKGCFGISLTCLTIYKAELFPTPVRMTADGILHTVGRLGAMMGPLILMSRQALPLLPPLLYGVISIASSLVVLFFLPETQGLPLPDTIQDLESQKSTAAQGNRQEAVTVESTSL
METRIC: 125I-T4 uptake compared to the vehicle control (range finding)

COMPOUND | EXPERIMENTAL SYSTEM | ENDPOINT VALUE
[CH3][Hg][Cl] [MeHg, Methyl mercury] | OAT4 (Homo sapiens) | ≥ 80%
Oc1ccc(Cc2ccc(O)cc2)cc1 [Bisphenol F, Bisphenol-F] | OAT4 (Homo sapiens) | below 80%
O=S(=O)(c1ccc(O)cc1)c1ccc(O)cc1 [Bisphenol S, Bisphenol-S] | OAT4 (Homo sapiens) | ≥ 80%
CC(C)(c1cc(Br)c(O)c(Br)c1)c1cc(Br)c(O)c(Br)c1 [Tetrabromobisphenol A, Tetrabromobisphenol-A] | OAT4 (Homo sapiens) | below 80%
O=S(=O)(O)C(F)(F)C(F)(F)C(F)(F)C(F)(F)C(F)(F)C(F)(F)C(F)(F)C(F)(F)F [Perfluorooctanesulfonic acid] | OAT4 (Homo sapiens) | below 80%
COc1cc([C@@H]2Oc3c(O)cc([C@H]4Oc5cc(O)cc(O)c5C(=O)[C@@H]4O)cc3[C@H]2CO)ccc1O [Silychristin, reference compound] | OAT4 (Homo sapiens) | ≥ 80%
O=C1OC(c2ccc(O)c(S(=O)(=O)O)c2)(c2ccc(O)c(S(=O)(=O)O)c2)c2c(Br)c(Br)c(Br)c(Br)c21 [Bromosulfophthalein, reference compound] | OAT4 (Homo sapiens) | below 80%
O=S(=O)([O-])c1cc(S(=O)(=O)O)ccc1C1=c2cc3c4c(c2Oc2c1cc1c5c2CCCN5CCC1)CCC[N+]=4CCC3 [Sulforhodamine 101, reference compound] | OAT4 (Homo sapiens) | ≥ 80%
